Entries and their pEC50
testedSystem: BRAF-GTP-KRAS-G12C complex (Homo sapiens, UniProt P01116+P62937, G12C)
Construct: 50 nM of His6-KRas G12C-GTP (1-169); 500 nM of tagless CypA (1-165)
experimentalDetails: KRAS-BRAF complex disruption through competition with CYPA-compound by TR-FRET
appliedConditions: biochemical BRAF-KRAS G12C-GTP disruption assay EC50, with CYPA
pEC50: −log10 of the molar value.

Consider the following illustrative entries.
CC1COC(=O)C2CCCN(N2)C(=O)C(NC(=O)C(C(C)C)N(C)C(=O)C2CN(C(=O)CCl)C2)Cc2cc(O)cc(c2)-c2ccc3c4c(n(c3c2)C1)COCC4(C)C#N (mixture of isomers) = ≥ 6.30
CC(C)[C@@H](C(=O)N[C@H]1Cc2cc(O)nc(c2)-c2ccc3c(C(C)(C)C#N)cn(c3c2)CC(C)(C)COC(=O)[C@@H]2CCCN(N2)C1=O)N(C)C(=O)C1CN(C(=O)CCl)C1 = < 5.30

INPUT: Look up pEC50 with BRAF-GTP-KRAS-G12C complex (Homo sapiens, UniProt P01116+P62937, G12C) for this molecule: `Cc1nc2ccc3cc2n1C[C@H](C)COC(=O)[C@@H]1CCCN(N1)C(=O)[C@@H](NC(=O)[C@H](C(C)C)N(C)C(=O)C1CN(C(=O)CCl)C1)Cc1cc(O)cc-3c1`
OUTPUT: ≥ 6.30

INPUT: Look up pEC50 with BRAF-GTP-KRAS-G12C complex (Homo sapiens, UniProt P01116+P62937, G12C) for this molecule: CC(C)C(C(=O)NC1Cc2cc(O)cc(c2)-c2ccc3c(C(C)(C)C#N)cn(c3c2)CC(C)(C)COC(=O)C2CCCN(N2)C1=O)N(C)C(=O)C1CCN(C(=O)CCl)C1 (centres unmarked)
OUTPUT: ≥ 6.30

INPUT: Look up pEC50 with BRAF-GTP-KRAS-G12C complex (Homo sapiens, UniProt P01116+P62937, G12C) for this molecule: `CC(C)[C@@H](C(=O)N[C@H]1Cc2cc(O)cc(c2)-c2ccc3c(Cc4cccnc4)cn(c3c2)C[C@H](C)COC(=O)[C@@H]2CCCN(N2)C1=O)N(C)C(=O)C1CN(C(=O)CCl)C1`
OUTPUT: ≥ 6.30

###

Entries and their Kd
testedSystem: UniProt P62937
experimentalDetails: CYPA-compound binary complex formation by SPR
appliedConditions: read-out: CYPA Binding Affinity

Consider the following illustrative entries.
CC(C)[C@@H](C(=O)N[C@H]1Cc2cc(O)cc(c2)-c2ccc3c(-c4ccn(C)n4)cn(c3c2)CC(C)(C)COC(=O)[C@@H]2CCCN(N2)C1=O)N(C)C(=O)C1CN(C(=O)CCl)C1 = 5 to 15 µM
CC(C)C(C(=O)NC1Cc2cc(O)cc(c2)-c2ccc3c(C#N)cn(c3c2)CCCOC(=O)C2CCCN(N2)C1=O)N(C)C(=O)C1CN(C(=O)CCl)C1 (stereo not drawn) = ≤ 5 µM

INPUT: Look up Kd with UniProt P62937 for this molecule: `CC1=C(C)C(=O)N(CC(=O)N(C)[C@H](C(=O)N[C@H]2Cc3cc(O)cc(c3)-c3ccc4nc(C)n(c4c3)CC(C)(C)COC(=O)[C@@H]3CCCN(N3)C2=O)C(C)C)C1=O`
OUTPUT: 5 to 15 µM

###

Entries and their IC50
Test system: pERK in H358 cells
experimentalDetails: pERK inhibition in H358 cells
Format: cell-based, human
appliedConditions: 4 hours treatment, read-out: Cellular pERK inhibition

Consider the following illustrative entries.
C=CC(=O)N1CCC(C(=O)N(C)C(C(=O)NC2Cc3cc(O)cc(c3)-c3ccc4c(c3)N(CC(C)COC(=O)C3CCCN(N3)C2=O)CC4(C)C(C)=O)C(C)C)C1 (stereo not shown) = > 10 µM
CC(C)C(C(=O)NC1Cc2cc(O)cc(c2)-c2ccc3c(C(=O)N(C)C)cn(c3c2)CC(C)(C)COC(=O)C2CCCN(N2)C1=O)N(C)C(=O)C1CN(C(=O)CCl)C1 (stereo not shown) = > 10 µM
C=CC(=O)N1CCC(C(=O)N(C)C(C(=O)NC2Cc3cc(O)cc(c3)-c3ccc4c(c3)N(CC(C)(C)COC(=O)C3CCCN(N3)C2=O)CC4(C=CC#N)COC)C(C)C)C1 (stereo not shown) = 1 to 10 µM
C=CC(=O)N1CCC(C(=O)N(C)C(C(=O)NC2Cc3cc(O)cc(c3)-c3ccc4c(c3)c(cn4C(C)(C)C#N)CC(C)(C)COC(=O)C3CCCN(N3)C2=O)C2CCCC2)C1 (stereo not shown) = ≤ 1 µM
CC(C)[C@@H](C(=O)N[C@H]1Cc2cc(O)cc(c2)-c2ccc3c(C(C)(C)C#N)cn(c3c2)C[C@H](C)COC(=O)[C@@H]2CCCN(N2)C1=O)N1CC[C@@H](N(C)C(=O)CCl)C1=O = 1 to 10 µM

INPUT: Reported IC50 for `CC(C)[C@@H](C(=O)N[C@H]1Cc2cc(O)cc(n2)-c2ccc3c(C(C)(C)C#N)cn(c3c2)C[C@H](C)CNC(=O)[C@@H]2CCCN(N2)C1=O)N(C)C(=O)C1CN(C(=O)CCl)C1` : what is it?
OUTPUT: > 10 µM

INPUT: Reported IC50 for CC1COC(=O)C2CCCN(N2)C(=O)C(NC(=O)C(C(C)C)N(C)C(=O)C2CN(C(=O)CCl)C2)Cc2cc(O)cc(c2)-c2ccc3c(C(C)C#N)cn(c3c2)C1 (stereo not shown) : what is it?
OUTPUT: ≤ 1 µM

INPUT: Reported IC50 for `CCN1CCCN2C[C@H](C)COC(=O)[C@@H]3CCCN(N3)C(=O)[C@@H](NC(=O)[C@H](C(C)C)N(C)C(=O)C3CN(C(=O)CCl)C3)Cc3cc(O)cc(c3)-c3ccc1c2c3` : what is it?
OUTPUT: > 10 µM

INPUT: Reported IC50 for `CNC(=O)c1cn2c3cc(ccc13)-c1cc(O)cc(c1)C[C@H](NC(=O)[C@H](C(C)C)N(C)C(=O)C1CN(C(=O)CCl)C1)C(=O)N1CCC[C@H](N1)C(=O)OCC(C)(C)C2` : what is it?
OUTPUT: > 10 µM

INPUT: Reported IC50 for C=CC(=O)N1CCC1C(=O)N(C)C(C(=O)NC1Cc2cc(O)cc(c2)-c2ccc3c(C(F)F)nn(c3c2)CC(C)COC(=O)C2CCCN(N2)C1=O)C(C)C (stereo not shown) [Compound 204] : what is it?
OUTPUT: 1 to 10 µM

INPUT: Reported IC50 for `C=CS(=O)(=O)N1CCN([C@H](C(=O)N[C@H]2Cc3cc(O)cc(c3)-c3ccc4nc(C)n(c4c3)CC(C)(C)COC(=O)[C@@H]3CCCN(N3)C2=O)C(C)C)C1=O` : what is it?
OUTPUT: 1 to 10 µM

INPUT: Reported IC50 for `C=CC(=O)N1CCN([C@H](C(=O)N[C@H]2Cc3cc(O)cc(c3)-c3ccc4c(C)cn(c4c3)CC(C)(C)COC(=O)[C@@H]3CCCN(N3)C2=O)C(C)C)C1=O` : what is it?
OUTPUT: > 10 µM

INPUT: Reported IC50 for `CCN1C(=O)CCN2C[C@H](C)COC(=O)[C@@H]3CCCN(N3)C(=O)[C@@H](NC(=O)[C@H](C(C)C)N(C)C(=O)C3CN(C(=O)CCl)C3)Cc3cc(O)cc(c3)-c3ccc1c2c3` : what is it?
OUTPUT: > 10 µM

INPUT: Reported IC50 for C=CC(=O)N1CCN(C(C(=O)NC2Cc3cc(O)cc(c3)-c3ccc4c(C(C)(C)C#N)cn(c4c3)CC(C)(C)COC(=O)C3CCCN(N3)C2=O)C(C)C)C(=O)C1 (stereo not shown) : what is it?
OUTPUT: > 10 µM

INPUT: Reported IC50 for CC1COC(=O)C2CCCN(N2)C(=O)C(NC(=O)C(C(C)C)N(C)C(=O)C2CN(C(=O)CCl)C2)Cc2cc(O)cc(c2)-c2ccc3c(-c4cccc(C#N)c4)cn(c3c2)C1 (stereo not shown) : what is it?
OUTPUT: ≤ 1 µM

INPUT: Reported IC50 for `CC(C)[C@@H](C(=O)N[C@H]1Cc2cc(O)cc(c2)-c2ccc3c(C#N)ccc(c3c2)OCCCOC(=O)[C@@H]2CCCN(N2)C1=O)N(C)C(=O)C1CN(C(=O)CCl)C1` : what is it?
OUTPUT: > 10 µM

INPUT: Reported IC50 for `CC(C)[C@@H](C(=O)N[C@H]1Cc2cc(O)cc(c2)-c2ccc3c(C4(C#N)CCC4)cn(c3c2)C[C@H](C)COC(=O)[C@@H]2CCCN(N2)C1=O)N(C)C(=O)C1CN(C(=O)CCl)C1` : what is it?
OUTPUT: ≤ 1 µM

INPUT: Reported IC50 for CC1COC(=O)[C@@H]2CCCN(N2)C(=O)[C@@H](NC(=O)[C@H](C(C)C)N(C)C(=O)C2CN(C(=O)CCl)C2)Cc2cc(O)cc(c2)-c2ccc3c(c2)c(cn3CC2COC2)C1 (single isomer, unassigned) [Compound 228] : what is it?
OUTPUT: 1 to 10 µM

INPUT: Reported IC50 for CC(C)[C@@H](C(=O)N[C@H]1Cc2cc(O)cc(c2)-c2ccc3c(C(C)(C)C#N)cn(c3c2)CC(C(F)F)COC(=O)[C@@H]2CCCN(N2)C1=O)N(C)C(=O)C1CN(C(=O)CCl)C1 (single isomer, unassigned) : what is it?
OUTPUT: 1 to 10 µM
